Listed here: items and their measured growth inhibition.
# assay.comment: NCI Yeast Anticancer Drug Screen. Data for the rad18 strain (AID 177)
# conditions: S. cerevisiae rad18 mutant growth inhibition; at 3.7 µM; hits give high values
This is part of a sample that, as a whole, favours compounds with a hit. Of some 79,000 tested, about 15% had one in any assay. The source made the active and inactive calls. Cut-off read from the data, not from the text of the source: active = growth inhibition above about 70%; inactive = the rest.

[
  {
    "compound": "O=C1C=C(CN(CCCl)CCCl)C(=O)C=C1CN(CCCl)CCCl",
    "growth inhibition": "13% (inactive)"
  },
  {
    "compound": "Oc1cccnc1[Se]",
    "growth inhibition": "3% (inactive)"
  },
  {
    "compound": "CCS(=O)(=O)[O][Sn]([CH2]C)([CH2]C)[O]S(=O)(=O)CC",
    "growth inhibition": "-25% (inactive)"
  },
  {
    "compound": "Cc1cccc(NC(=O)CBr)c1",
    "growth inhibition": "39% (inactive)"
  },
  {
    "compound": "CC[C@@]1(O)C(=O)OCc2c1cc1n(c2=O)Cc2cc3c(NC(=O)CN)cccc3nc2-1",
    "growth inhibition": "-6% (inactive)"
  },
  {
    "compound": "NC1=NCC(c2ccc(Cl)cc2)O1 (configuration not stated)",
    "growth inhibition": "-3% (inactive)"
  },
  {
    "compound": "O=[N+]([O-])c1ccc(-n2nc3ccc4c(no[n+]4[O-])c3[n+]2[O-])c([N+](=O)[O-])c1",
    "growth inhibition": "4% (inactive)"
  },
  {
    "compound": "S=C1NC2(CCCCC2)NC12CCCCC2",
    "growth inhibition": "-1% (inactive)"
  },
  {
    "compound": "C[C@@]12CCC(=O)C=C1CC[C@H]1C2=CC[C@]2(C)C1CC[C@@]2(C)O (some centres not stated)",
    "growth inhibition": "0% (inactive)"
  },
  {
    "compound": "COc1cc(C2c3cc4c(cc3[C@@H](Nc3ccc(N)cc3)C3COC(=O)[C@H]23)OCO4)cc(OC)c1O (some centres not stated)",
    "growth inhibition": "72% (active)"
  },
  {
    "compound": "C[CH2][Sn]([CH2]C)([O]S(C)(=O)=O)[O]S(C)(=O)=O",
    "growth inhibition": "-19% (inactive)"
  },
  {
    "compound": "CCNC(=O)OCC1C2=C(C(=O)C(C)=C(N)C2=O)N2CC3C(N3C)C12OC (configuration not stated)",
    "growth inhibition": "40% (inactive)"
  },
  {
    "compound": "CC[C@](O)(C(=O)O)c1cc2n(c(=O)c1CO)Cc1cc3ccccc3nc1-2",
    "growth inhibition": "29% (inactive)"
  },
  {
    "compound": "CNC(=O)ON(C(C)=O)C(=O)NC",
    "growth inhibition": "-24% (inactive)"
  },
  {
    "compound": "CC1CC(Br)C(=O)O1 (configuration not stated)",
    "growth inhibition": "-50% (inactive)"
  },
  {
    "compound": "O=C(c1ccccc1)C1C(c2ccccc2[N+](=O)[O-])N1C1CCCCC1 (configuration not stated)",
    "growth inhibition": "23% (inactive)"
  },
  {
    "compound": "O=[N+]([O-])O.[NH-]C1CCCCC1[NH-].[NH-]C1CCCCC1[NH-].[NH-]C1CCCCC1[NH-].[OH-].[OH-].[OH-].[Pt+4].[Pt+4].[Pt+4] (configuration not stated)",
    "growth inhibition": "2% (inactive)"
  },
  {
    "compound": "C/C(=N\\N=C(N)N)C(CN1CCOCC1)C(c1ccccc1)c1c(O)c2ccccc2oc1=O (configuration not stated)",
    "growth inhibition": "-9% (inactive)"
  },
  {
    "compound": "Oc1c(Br)cc(Br)cc1Br",
    "growth inhibition": "1% (inactive)"
  },
  {
    "compound": "Nc1nc(N)c(-c2ccc(Cl)c(Cl)c2)c(CP(Cl)(Cl)(Cl)Br)n1",
    "growth inhibition": "45% (inactive)"
  },
  {
    "compound": "CCN(CCCl)c1cc(CN(C)C)cc(NC(=O)c2ccc(C(=O)Nc3cc(CN(C)C)cc(N(CC)CCCl)c3)cc2)c1",
    "growth inhibition": "57% (inactive)"
  },
  {
    "compound": "[N-]=[N+]=C1C(Cl)=C(Cl)C(Cl)=C1Cl",
    "growth inhibition": "13% (inactive)"
  }
]
